Provide the recorded Relative Affinity for the entries that follow.
Biological target: T1, sIL-6R (soluble IL-6 receptor; SBH Sciences) (human, UniProt P08887 20-365)
T1 construct: also called human IL-6R
T1 sequence: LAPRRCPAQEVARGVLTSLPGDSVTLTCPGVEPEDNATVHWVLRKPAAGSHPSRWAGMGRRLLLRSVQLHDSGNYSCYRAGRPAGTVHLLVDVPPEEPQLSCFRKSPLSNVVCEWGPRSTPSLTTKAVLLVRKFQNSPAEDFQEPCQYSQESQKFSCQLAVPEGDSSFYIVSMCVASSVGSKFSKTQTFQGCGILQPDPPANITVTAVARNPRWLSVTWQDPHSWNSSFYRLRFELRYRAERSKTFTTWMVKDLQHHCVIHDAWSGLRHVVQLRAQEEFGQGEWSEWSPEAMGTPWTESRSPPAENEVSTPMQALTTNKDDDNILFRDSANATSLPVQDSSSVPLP
Assay: SPR (BIAcore 3000), antibody on chip, sIL-6R analyte, 25 C

Entry 236# (antibody, human IgG1, kappa, V domains shown) VH: QVQLQESGPGLVRPSQTLSLTCTVSGYSITSDHAWSWVRQPPGRGLEWIGYISYSGMTTYNPSLKSRVTMLRDTSKNQFSLRLSSVTAADTAVYYCARCLARATAMDYWGQGSLVTVSS VL: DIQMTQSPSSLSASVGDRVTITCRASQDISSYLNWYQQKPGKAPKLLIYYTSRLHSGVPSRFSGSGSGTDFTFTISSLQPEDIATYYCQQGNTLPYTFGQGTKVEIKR — recorded Relative Affinity = 38.1 fold vs 25 (Tocilizumab)

Lookup result for 244# (antibody, human IgG1, kappa, V domains shown) VH: QVQLQESGPGLVRPSQTLSLTCTVSGYSITSDHAWSWVRQPPGRGLEWIGYISYSGITTYNPSLKSRVTMLRDTSKNQFSLRLSSVTAADTAVYYCARTLARMTAIDFWGQGSLVTVSS VL: DIQMTQSPSSLSASVGDRVTITCRASQDISSYLNWYQQKPGKAPKLLIYYTSRLHSGVPSRFSGSGSGTDFTFTISSLQPEDIATYYCGQGNRLPYTFGQGTKVEIKR ; measured Relative Affinity: 19 fold vs 25 (Tocilizumab)

Data origin: patent US20190315854A1
